- TARGET_SYSTEM: BRK (Homo sapiens)
- Construct: purchased Promega
- Sequence (Q13882 whole entry): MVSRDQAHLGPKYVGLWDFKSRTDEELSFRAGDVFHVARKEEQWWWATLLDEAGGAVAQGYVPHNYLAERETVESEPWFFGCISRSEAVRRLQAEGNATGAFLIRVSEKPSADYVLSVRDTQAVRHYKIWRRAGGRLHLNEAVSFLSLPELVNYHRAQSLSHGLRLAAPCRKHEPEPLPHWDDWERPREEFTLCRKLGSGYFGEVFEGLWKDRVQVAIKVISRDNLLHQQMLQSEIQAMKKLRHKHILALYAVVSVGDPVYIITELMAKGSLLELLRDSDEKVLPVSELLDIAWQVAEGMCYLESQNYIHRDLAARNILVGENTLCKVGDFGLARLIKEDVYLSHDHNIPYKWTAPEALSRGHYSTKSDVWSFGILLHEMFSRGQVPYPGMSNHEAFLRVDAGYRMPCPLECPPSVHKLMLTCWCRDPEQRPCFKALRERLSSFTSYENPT
- ASSAY_PROCEDURE: Tyrosine kinase assay (Kinase Selectivity System TK-2, ADP-Glo)
- Type: biochemical
- CONDITION_DESCRIPTION: 1 h incubation, mean ± SD of four experiments
I'd appreciate it if you could supply inhibition at 0.5 µM values for the items below.
One number for each entry, in %.

- COMPOUND: "COc1ccccc1/C=C/c1nc(Sc2cc3c(cc2Br)OCO3)c2ccc(Cl)cc2n1"
  MEASUREMENT_LABEL: "inhibition at 0.5 µM"
  OBSERVED_RESULT: 27.2
- COMPOUND: "COc1cccc(Sc2nc(/C=C/c3ccccc3OC)nc3cc(Cl)ccc23)c1"
  MEASUREMENT_LABEL: "inhibition at 0.5 µM"
  OBSERVED_RESULT: 0
- COMPOUND: "CNC(=O)c1ccccc1Sc1ccc2c(/C=C/c3ccccn3)n[nH]c2c1 [Axitinib, axitinib, reference compound]"
  MEASUREMENT_LABEL: "inhibition at 0.5 µM"
  OBSERVED_RESULT: 0
- COMPOUND: "Cc1ccc(NC(=O)c2ccc(CN3CCN(C)CC3)cc2)cc1Nc1nccc(-c2cccnc2)n1 [Imatinib, imatinib, reference compound]"
  MEASUREMENT_LABEL: "inhibition at 0.5 µM"
  OBSERVED_RESULT: 0
- COMPOUND: "COc1ccccc1/C=C/c1nc(Sc2ccc(SC)cc2)c2ccccc2n1"
  MEASUREMENT_LABEL: "inhibition at 0.5 µM"
  OBSERVED_RESULT: 19.3
- COMPOUND: "COc1cccc(Sc2nc(/C=C/c3ccccc3OC)nc3ccccc23)c1"
  MEASUREMENT_LABEL: "inhibition at 0.5 µM"
  OBSERVED_RESULT: 0

I need inhibition at 0.5 µM for every entry listed below, if you could help.
1. NC(=O)c1cccc(-c2cc(Nc3ccc(OC(F)(F)F)cc3)ncn2)c1 [GNF-2, reference compound]
2. COc1ccccc1/C=C/c1nc(Sc2cc3c(cc2Br)OCO3)c2ccccc2n1

Reply:
1: 0; 2: 0

I need inhibition at 0.5 µM for every entry listed below, if you could help.
1. COc1ccccc1/C=C/c1nc(Sc2cccc(O)c2)c2ccccc2n1
2. COc1ccccc1/C=C/c1nc(Sc2ccccc2Cl)c2ccc(Cl)cc2n1
3. COc1ccccc1/C=C/c1nc(Sc2ccc3c(c2)OCO3)c2ccccc2n1
4. COc1ccc(/C=C/c2nc(Sc3ccccc3Cl)c3ccccc3n2)c(OC)c1
5. COc1ccccc1/C=C/c1nc(Sc2ccccc2Cl)c2ccccc2n1
6. COc1ccc(/C=C/c2nc(Sc3cc4c(cc3Br)OCO4)c3ccccc3n2)c(OC)c1
7. COc1ccccc1/C=C/c1nc(Sc2cc(Cl)ccc2Cl)c2ccccc2n1

Reply:
1: 15.8; 2: 0; 3: 25; 4: 0; 5: 51; 6: 0; 7: 0

Ask: Value lookup for inhibition at 0.5 µM; key = `COc1ccccc1/C=C/c1nc(Sc2ccccc2Br)c2ccccc2n1`
Reply: 0

---

- TARGET_SYSTEM: Fyn A (Homo sapiens, UniProt P06241)
- Construct: purchased Promega
- Sequence (P06241 whole entry): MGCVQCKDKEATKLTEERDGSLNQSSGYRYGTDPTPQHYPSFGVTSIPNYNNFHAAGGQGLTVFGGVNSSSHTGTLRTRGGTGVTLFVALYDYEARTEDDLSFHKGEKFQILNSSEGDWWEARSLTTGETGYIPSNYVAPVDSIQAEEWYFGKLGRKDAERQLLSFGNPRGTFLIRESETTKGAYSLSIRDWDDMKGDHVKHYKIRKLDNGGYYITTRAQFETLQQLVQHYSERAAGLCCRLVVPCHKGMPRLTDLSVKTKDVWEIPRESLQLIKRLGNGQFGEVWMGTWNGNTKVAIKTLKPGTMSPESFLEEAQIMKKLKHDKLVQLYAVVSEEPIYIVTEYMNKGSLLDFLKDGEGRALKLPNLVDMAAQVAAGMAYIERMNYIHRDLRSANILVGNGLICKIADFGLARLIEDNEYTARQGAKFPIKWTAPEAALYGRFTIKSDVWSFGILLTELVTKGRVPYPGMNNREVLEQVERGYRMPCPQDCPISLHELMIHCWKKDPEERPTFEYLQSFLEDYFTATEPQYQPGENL
- ASSAY_PROCEDURE: Tyrosine kinase assay (Kinase Selectivity System TK-2, ADP-Glo)
- Type: biochemical
- CONDITION_DESCRIPTION: 1 h incubation, mean ± SD of four experiments
// label = met if inhibition at 0.5 µM is not less than 20%, otherwise not met

Please review the following examples before continuing.
- COMPOUND: "COc1ccccc1/C=C/c1nc(Sc2ccccc2F)c2ccccc2n1"
  CATEGORY_LABEL: "not met"
- COMPOUND: "COc1ccccc1/C=C/c1nc(Sc2ccccn2)c2ccc(Cl)cc2n1"
  CATEGORY_LABEL: "not met"
- COMPOUND: "COc1ccccc1/C=C/c1nc(Sc2cccc(Cl)c2)c2ccccc2n1"
  CATEGORY_LABEL: "met"
- COMPOUND: "NC(=O)c1cccc(-c2cc(Nc3ccc(OC(F)(F)F)cc3)ncn2)c1 [GNF-2, reference compound]"
  CATEGORY_LABEL: "not met"

Turning to the following compound.
Ask: hey, is inhibition at 0.5 µM for this one >= 20%? `COc1ccc(/C=C/c2nc(Sc3ccccc3Cl)c3ccccc3n2)c(OC)c1`
Reply: met

---

- TARGET_SYSTEM: Lyn B (Homo sapiens)
- Construct: purchased Promega
- Sequence (P07948 1-491 isoform P07948-2): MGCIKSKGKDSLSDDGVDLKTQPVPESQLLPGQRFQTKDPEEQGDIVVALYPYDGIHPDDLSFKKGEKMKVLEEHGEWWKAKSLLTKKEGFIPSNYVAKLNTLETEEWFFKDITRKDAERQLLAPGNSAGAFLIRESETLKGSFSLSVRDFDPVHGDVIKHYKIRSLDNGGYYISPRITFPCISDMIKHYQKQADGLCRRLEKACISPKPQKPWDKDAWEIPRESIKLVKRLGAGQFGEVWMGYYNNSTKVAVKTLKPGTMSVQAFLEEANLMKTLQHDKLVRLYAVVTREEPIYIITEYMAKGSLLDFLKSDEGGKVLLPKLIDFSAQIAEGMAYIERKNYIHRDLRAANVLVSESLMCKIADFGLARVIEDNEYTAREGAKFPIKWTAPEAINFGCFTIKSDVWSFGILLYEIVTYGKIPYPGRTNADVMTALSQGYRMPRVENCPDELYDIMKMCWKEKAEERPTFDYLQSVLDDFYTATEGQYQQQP
- ASSAY_PROCEDURE: Tyrosine kinase assay (Kinase Selectivity System TK-2, ADP-Glo)
- Type: biochemical
- CONDITION_DESCRIPTION: 1 h incubation, mean ± SD of four experiments
MEASUREMENT_LABEL: inhibition at 0.5 µM (%)
Numbers only, in %.

Examples from the recorded data:
- COMPOUND: "COc1ccc(/C=C/c2nc(Sc3ccccc3Cl)c3ccccc3n2)cc1"
  TARGET_SYSTEM: "Lyn B (Homo sapiens)"
  ENDPOINT_UNIT: "%"
  OBSERVED_RESULT: 13.8
- COMPOUND: "Cc1nc(Nc2ncc(C(=O)Nc3c(C)cccc3Cl)s2)cc(N2CCN(CCO)CC2)n1 [Dasatinib, dasatinib, reference compound]"
  TARGET_SYSTEM: "Lyn B (Homo sapiens)"
  ENDPOINT_UNIT: "%"
  OBSERVED_RESULT: 97.5

I need inhibition at 0.5 µM for every entry listed below, if you could help.
1. COc1ccccc1/C=C/c1nc(Sc2ccc(SC)cc2)c2ccccc2n1
2. CNC(=O)c1ccccc1Sc1ccc2c(/C=C/c3ccccn3)n[nH]c2c1 [Axitinib, axitinib, reference compound]

Reply:
57
39

---

- Tested on: K562 cells
- ASSAY_PROCEDURE: Immunoblotting
- Type: cell-based, human
- CONDITION_DESCRIPTION: 16 h

- COMPOUND: "COc1ccccc1/C=C/c1nc(Sc2ccc3c(c2)OCO3)c2ccccc2n1"
  Src protein expression / phosphorylation: "almost two-fold decrease"
- COMPOUND: "Cc1ccc(NC(=O)c2ccc(CN3CCN(C)CC3)cc2)cc1Nc1nccc(-c2cccnc2)n1 [Imatinib, imatinib, reference compound]"
  Src protein expression / phosphorylation: "significant accumulation"
- COMPOUND: "COc1ccccc1/C=C/c1nc(Sc2cccc(O)c2)c2ccccc2n1"
  Src protein expression / phosphorylation: "almost two-fold decrease"
- COMPOUND: "NC(=O)c1cccc(-c2cc(Nc3ccc(OC(F)(F)F)cc3)ncn2)c1 [GNF-2, reference compound]"
  Src protein expression / phosphorylation: "significant accumulation"

---

- TARGET_SYSTEM: Fyn A (Homo sapiens)
- Construct: purchased Promega
- ASSAY_PROCEDURE: Tyrosine kinase assay (Kinase Selectivity System TK-2, ADP-Glo)
- Assay type: biochemical
- CONDITION_DESCRIPTION: 1 h incubation, mean ± SD of four experiments
- Description: All newly synthesised derivatives were screened for their inhibitory potential towards eight non-receptor tyrosine kinases, such as ABL, BTK, BRK and Src family kinases, such as CSK, Lyn, Lck, Fyn and Src. […] Herein, we used a kinase assay that contained fully expressed kinases with their regulatory domains, which are responsible for autoinhibition. […] The luminescence signal detected after one hour of incubation with a peptide substrate was a measure of inhibition. […]
I'd appreciate it if you could supply inhibition at 0.5 µM values for the items below.
Write the figure, then the unit, nothing else.

Examples from the recorded data:
- COMPOUND: "Cc1nc(Nc2ncc(C(=O)Nc3c(C)cccc3Cl)s2)cc(N2CCN(CCO)CC2)n1 [Dasatinib, dasatinib, reference compound]"
  TARGET_SYSTEM: "Fyn A (Homo sapiens)"
  OBSERVED_RESULT: "92.3%"
- COMPOUND: "COc1cccc(Sc2nc(/C=C/c3ccccc3OC)nc3cc(Cl)ccc23)c1"
  TARGET_SYSTEM: "Fyn A (Homo sapiens)"
  OBSERVED_RESULT: "0%"
- COMPOUND: "COc1ccc(/C=C/c2nc(Sc3cc4c(cc3Br)OCO4)c3ccccc3n2)c(OC)c1"
  TARGET_SYSTEM: "Fyn A (Homo sapiens)"
  OBSERVED_RESULT: "19.8%"
- COMPOUND: "COc1ccccc1/C=C/c1nc(Sc2cc(Cl)ccc2Cl)c2ccccc2n1"
  TARGET_SYSTEM: "Fyn A (Homo sapiens)"
  OBSERVED_RESULT: "60%"
- COMPOUND: "COc1ccc(/C=C/c2nc(Sc3ccccc3Cl)c3ccccc3n2)cc1"
  TARGET_SYSTEM: "Fyn A (Homo sapiens)"
  OBSERVED_RESULT: "17.3%"
- COMPOUND: "COc1cccc(Sc2nc(/C=C/c3ccccc3OC)nc3ccccc23)c1"
  TARGET_SYSTEM: "Fyn A (Homo sapiens)"
  OBSERVED_RESULT: "25.7%"
- COMPOUND: "COc1ccc(/C=C/c2nc(NCCCN(C)C)c3ccccc3n2)cc1 [CP-31398, reference compound]"
  TARGET_SYSTEM: "Fyn A (Homo sapiens)"
  OBSERVED_RESULT: "30.6%"
- COMPOUND: "COc1ccccc1/C=C/c1nc(Sc2ccc3c(c2)OCO3)c2ccccc2n1"
  TARGET_SYSTEM: "Fyn A (Homo sapiens)"
  OBSERVED_RESULT: "21.5%"

I need inhibition at 0.5 µM for every entry listed below, if you could help.
1. COc1ccccc1/C=C/c1nc(Sc2cc3c(cc2Br)OCO3)c2ccccc2n1
2. Cc1ccc(NC(=O)c2ccc(CN3CCN(C)CC3)cc2)cc1Nc1nccc(-c2cccnc2)n1 [Imatinib, imatinib, reference compound]
3. COc1ccccc1/C=C/c1nc(Sc2ccc(SC)cc2)c2ccccc2n1
4. COc1ccccc1/C=C/c1nc(Sc2cccc(O)c2)c2ccccc2n1
5. COc1ccccc1/C=C/c1nc(Sc2cc3c(cc2Br)OCO3)c2ccc(Cl)cc2n1

Reply:
19.1%
0%
52%
0%
57.5%
